This collection of values is drawn from the supplement of paper PMC10567573.

B1: SNX8 (parent)
chain: VVLKLFLSFSGSDVQNKLKESAQC

- Variants of: B1
- Test protocol: protein stability index of a GFP-peptide fusion (GPS, HEK-293T) (PSI 1-6); higher = more stable;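 also: lentivirally expressed fusions sorted by FACS into six bins by GFP to DsRed ratio, PSI derived from sequencing read proportions per bin multiplied by bin number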
- Experimental conditions: c terminus: a fixed tail appended
Measured property: protein stability index
// response body must contain only the number

## Task Looking for the measured protein stability index of AVLKLFLSFSGSDVQNKLKESAQC [V1A] , can you help?
## Result 1.96

## Task Field request: protein stability index | item: VVLKLFLSFSGSDVQNKLKESAQW [C24W]
## Result 1.84

## Task GET /values?readout=protein stability index&item= VMLKLFLSFSGSDVQNKLKESAQC [V2M]
## Result 2.57

## Task Given VVLKLFLSFSGSDVQNKLKESARC [Q23R] , state its recorded protein stability index.
## Result 2.8

## Task Consider the variant shown here: VVLKLFLSFSCSDVQNKLKESAQC [G11C] What is its recorded protein stability index?
## Result 1.74

## Task Any idea what its protein stability index is? The variant is VVLKLFLSFSGSDVQNKLKESKQC [A22K]
## Result 2.18

## Task Item VVLKLFLSYSGSDVQNKLKESAQC [F9Y] has what recorded protein stability index?
## Result 3.17

## Task Name the reported protein stability index value associated with the variant VVLKLFLSFSGSDVQNKLKENAQC [S21N]
## Result 2.55

## Task # get_value(readout='protein stability index', item= VVLKLFKSFSGSDVQNKLKESAQC [L7K] )
## Result 1.84

## Task Please give the measured protein stability index for this variant: VVLKHFLSFSGSDVQNKLKESAQC [L5H]
## Result 2.57

## Task Report protein stability index for VYLKLFLSFSGSDVQNKLKESAQC [V2Y] please.
## Result 2.24

## Task So what's the measured protein stability index for this one? VVLKLFLSFSGSDVQNKLKESACC [Q23C]
## Result 3.1

## Task What does the data say about its protein stability index? Entry: VVLKLFLSASGSDVQNKLKESAQC [F9A]
## Result 3

## Task What value of protein stability index has been reported for the following variant? VVLKLFLSFSGSDVQFKLKESAQC [N16F]
## Result 2.04

## Task Which protein stability index is reported for this variant? VVLKLFLSFSGQDVQNKLKESAQC [S12Q]
## Result 3.23

## Task What protein stability index value was documented for this variant, VVLKLNLSFSGSDVQNKLKESAQC [F6N] ?
## Result 3.24

## Task What protein stability index value was documented for this variant, VVLKLFLSFSGSDVQNKLKESADC [Q23D] ?
## Result 2.27

## Task Which protein stability index value belongs to VVLKLFLSFSGDDVQNKLKESAQC [S12D] ?
## Result 3.29

## Task Given the entry VVSKLFLSFSGSDVQNKLKESAQC [L3S] , report its measured protein stability index.
## Result 1.66

## Task Query (variant): VVLKLFLSFSGSDVQNKGKESAQC [L18G] ; field requested: protein stability index
## Result 4.32

## Task Report protein stability index for VVLKLFLSFLGSDVQNKLKESAQC [S10L] please.
## Result 2.45

## Task Recorded protein stability index for TVLKLFLSFSGSDVQNKLKESAQC [V1T] , please?
## Result 2.48

## Task Return reported protein stability index; argument: VVLKLFLSFSGSDVQNKLKESFQC [A22F]
## Result 3.23

## Task // lookup protein stability index for VVLKLFESFSGSDVQNKLKESAQC [L7E]
## Result 2.56

## Task Recorded protein stability index for VVLKLFLSFSGSDVQNKLKESAQY [C24Y] , please?
## Result 3.1

## Task Item VVLKLFLSFSGSHVQNKLKESAQC [D13H] has what recorded protein stability index?
## Result 3.62

## Task Value lookup for protein stability index; key = VVLKLFLSFSGSDVQNKLKESALC [Q23L]
## Result 3.31

## Task If you can, please state the reported protein stability index value of VVLKKFLSFSGSDVQNKLKESAQC [L5K] .
## Result 2.59

## Task # query: protein stability index of entry VVLKLFLSFSGSDVQNKLKESASC [Q23S]
## Result 1.46

## Task Find the recorded protein stability index belonging to VVKKLFLSFSGSDVQNKLKESAQC [L3K] and report it.
## Result 2.5

## Task Which protein stability index value is on record for VVLKLFLSFSGSDVQNKWKESAQC [L18W] ?
## Result 1.93

## Task Value lookup for protein stability index; key = VVLKLFLSFSGSDVQNKLKQSAQC [E20Q]
## Result 2.37

## Task Requested field: protein stability index. Item: VVLKLFLSFSGMDVQNKLKESAQC [S12M]
## Result 1.72

## Task Please give the measured protein stability index for this variant: VVLKLFLSESGSDVQNKLKESAQC [F9E]
## Result 1.11

## Task Sample VVLKLFLLFSGSDVQNKLKESAQC [S8L] — what was its protein stability index?
## Result 2.45

## Task Can you share its protein stability index? I mean this variant: VVLKLFLSFSGSDVQNKLKESAQP [C24P]
## Result 3.78

## Task For VVLKLFLSFSGSDVQNKLKESAIC [Q23I] , what is its reported protein stability index?
## Result 3.23

## Task Record request: protein stability index value, item VVLKLFLSFSGSDNQNKLKESAQC [V14N]
## Result 1.99

## Task Suppose we examine the variant VVLKLFLSFSGSDVQNKLKEWAQC [S21W] ; what protein stability index value has been reported?
## Result 2.66

## Task # get_value(readout='protein stability index', item= IVLKLFLSFSGSDVQNKLKESAQC [V1I] )
## Result 3.61

## Task I am curious: what protein stability index value has been reported for VVLKGFLSFSGSDVQNKLKESAQC [L5G] ?
## Result 1.55

## Task Fill in the blank: the reported protein stability index of VVHKLFLSFSGSDVQNKLKESAQC [L3H] is ____.
## Result 3.17

## Task Param item = VVLKLFLSFSYSDVQNKLKESAQC [G11Y] ; retrieve measured protein stability index.
## Result 2.42

## Task Item VVLKLFLSFSASDVQNKLKESAQC [G11A] has what recorded protein stability index?
## Result 2.33

## Task Entry VVLKLFLSFSGSDVQNKLKESAAC [Q23A] : reported protein stability index = ?
## Result 3.04

## Task May I ask what protein stability index has been recorded for VVLHLFLSFSGSDVQNKLKESAQC [K4H] ?
## Result 2.6

## Task What value of protein stability index has been reported for the following variant? VVLKLFLSFSGADVQNKLKESAQC [S12A]
## Result 2.2

## Task Would you kindly share the measured protein stability index for VVLKLFLSFSGSCVQNKLKESAQC [D13C] ?
## Result 2.1

## Task Look at this variant and give its reported protein stability index. VVLKLFLSFSGSDVQNYLKESAQC [K17Y]
## Result 3.54

## Task Quick one: protein stability index of VVTKLFLSFSGSDVQNKLKESAQC [L3T] ?
## Result 1.2

## Task GET /values?readout=protein stability index&item= VVLKLFPSFSGSDVQNKLKESAQC [L7P]
## Result 2.34

## Task What value of measured protein stability index is listed for VVLKLFLSRSGSDVQNKLKESAQC [F9R] ?
## Result 2.42

## Task Any idea what protein stability index was measured for SVLKLFLSFSGSDVQNKLKESAQC [V1S] ?
## Result 3.54

## Task Report protein stability index for VNLKLFLSFSGSDVQNKLKESAQC [V2N] please.
## Result 1.11

## Task Quick one: protein stability index of VVLKLFLSFSGSDVQNKLQESAQC [K19Q] ?
## Result 5.1

## Task Record request: protein stability index value, item VVLKLFLSFSGSDEQNKLKESAQC [V14E]
## Result 1.91

## Task Suppose we examine the variant VVLKLFLSFSGSDVQNKRKESAQC [L18R] ; what protein stability index value has been reported?
## Result 1.5

## Task // lookup protein stability index for VVLKLFLSFSGSDVQNKIKESAQC [L18I]
## Result 2.58

## Task Return reported protein stability index; argument: FVLKLFLSFSGSDVQNKLKESAQC [V1F]
## Result 2.81

## Task Data request, read-out protein stability index, for VVLKLFLSVSGSDVQNKLKESAQC [F9V]
## Result 3.52

## Task Which protein stability index value belongs to VVLKLFLSFSLSDVQNKLKESAQC [G11L] ?
## Result 3.09

## Task Could you share which protein stability index value was measured for VVLKLFLSFSGSDVQNKLKMSAQC [E20M] ?
## Result 2.13

## Task // lookup protein stability index for VVLKLFQSFSGSDVQNKLKESAQC [L7Q]
## Result 1.63

## Task I would be grateful if you could share the reported protein stability index for VVLKLFLSFSGSDVQNKLKEFAQC [S21F] .
## Result 1.88

## Task I'd like to know its protein stability index. The variant in question is VVLKLFLSFSGSDVQNKLKEDAQC [S21D]
## Result 1.56

## Task Find the recorded protein stability index belonging to VVYKLFLSFSGSDVQNKLKESAQC [L3Y] and report it.
## Result 1.94

## Task Name the recorded protein stability index for VVLKLFLSFSGSDVQNKLKESTQC [A22T] .
## Result 1.76

## Task Entry VVLKLFLSFSGLDVQNKLKESAQC [S12L] : reported protein stability index = ?
## Result 1.37

## Task Need protein stability index of VVLKQFLSFSGSDVQNKLKESAQC [L5Q] , thanks.
## Result 2.61

## Task Dear colleague, I am looking for the recorded protein stability index of the following variant: NVLKLFLSFSGSDVQNKLKESAQC [V1N]
## Result 1.36

## Task Name the recorded protein stability index for VVLKLFLSFSGSDVQNWLKESAQC [K17W] .
## Result 4.7

## Task Request the reported protein stability index associated with VVLKLMLSFSGSDVQNKLKESAQC [F6M]
## Result 2.48

## Task May I ask what protein stability index has been recorded for VVLKLFLSFSGSFVQNKLKESAQC [D13F] ?
## Result 2.07

## Task Given the variant VCLKLFLSFSGSDVQNKLKESAQC [V2C] , what is its reported protein stability index?
## Result 3.14

## Task Consider the variant shown here: VVLKLFLSFTGSDVQNKLKESAQC [S10T] What is its recorded protein stability index?
## Result 4.41

## Task Given the variant VVLKLFLSFSGSDVQRKLKESAQC [N16R] , what is its reported protein stability index?
## Result 2.84

## Task What measured protein stability index goes with VVLKLFLSFSGSDVQNKLKESATC [Q23T] ?
## Result 2.48

## Task Can you look up the measured protein stability index of VVLKLFLSFMGSDVQNKLKESAQC [S10M] for me?
## Result 1.38

## Task Quick one: protein stability index of VVLKLFLSFSGSDVQNKLKEYAQC [S21Y] ?
## Result 2.66

## Task Endpoint output: protein stability index of VVLKLFLSFSGSDVDNKLKESAQC [Q15D] . Value?
## Result 1.8

## Task Which protein stability index is listed for VVLKLFLSFSGSDVQNKLNESAQC [K19N] ?
## Result 2.76

## Task Recorded protein stability index of VVLKPFLSFSGSDVQNKLKESAQC [L5P] , please.
## Result 1.83

## Task Can you share its protein stability index? I mean this variant: VVLKLFLSNSGSDVQNKLKESAQC [F9N]
## Result 1.66

## Task Request the reported protein stability index associated with VVLKLFLSFNGSDVQNKLKESAQC [S10N]
## Result 2.75
